- TESTED TARGET: recombinant human GR (Homo sapiens)
- Sequence (P04150 whole entry): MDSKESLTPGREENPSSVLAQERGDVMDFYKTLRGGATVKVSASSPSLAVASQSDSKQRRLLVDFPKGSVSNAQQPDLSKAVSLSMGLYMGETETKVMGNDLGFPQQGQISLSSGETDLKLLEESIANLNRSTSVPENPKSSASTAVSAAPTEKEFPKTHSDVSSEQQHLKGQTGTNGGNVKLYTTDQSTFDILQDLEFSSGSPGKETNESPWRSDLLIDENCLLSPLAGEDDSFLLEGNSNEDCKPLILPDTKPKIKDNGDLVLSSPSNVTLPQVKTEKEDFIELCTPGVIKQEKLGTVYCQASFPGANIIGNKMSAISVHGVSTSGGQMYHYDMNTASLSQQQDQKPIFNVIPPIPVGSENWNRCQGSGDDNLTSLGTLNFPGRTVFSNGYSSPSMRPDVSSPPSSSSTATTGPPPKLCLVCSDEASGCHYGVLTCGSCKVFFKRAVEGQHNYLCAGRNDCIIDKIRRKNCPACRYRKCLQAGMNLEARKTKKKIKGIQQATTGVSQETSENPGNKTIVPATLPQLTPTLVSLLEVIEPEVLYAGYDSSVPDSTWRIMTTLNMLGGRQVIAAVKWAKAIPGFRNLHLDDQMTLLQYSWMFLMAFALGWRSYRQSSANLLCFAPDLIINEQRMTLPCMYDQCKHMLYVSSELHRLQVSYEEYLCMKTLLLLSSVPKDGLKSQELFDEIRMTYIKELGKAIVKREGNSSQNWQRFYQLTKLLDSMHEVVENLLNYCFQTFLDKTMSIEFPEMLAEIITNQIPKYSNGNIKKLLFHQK
- ASSAY PROTOCOL: Human Glucocorticoid Receptor (GR) Assay, fluorescence polarization
- RUN PARAMETERS: GS Red tracer, 2 hours at room temperature
hey, just use class 1 if measured IC50 is less than 300 nM, otherwise class 0

> print(dat)
                                chem.smiles  discrete.label
1  Cc1cc(S(=O)(=O)Nc2cccc(CCc3ccccn3)c2)c(C)s1         class 1

Q) Just wondering, is IC50 of `Cc1cc(C)cc(S(=O)(=O)Nc2cccc(CCc3ccccn3)c2)c1` below 300 nM?
A) class 1

Q) Just wondering, is IC50 of `COc1cc(C)c(S(=O)(=O)NCc2c(-c3ccccc3)noc2C)c(C)c1C` below 300 nM?
A) class 1

Q) Just wondering, is IC50 of `Cc1cc(C)c(S(=O)(=O)NCc2ccc(-c3ccc(Cl)cc3)s2)c(C)c1` below 300 nM?
A) class 1

Q) Just wondering, is IC50 of `O=S(=O)(Nc1cccc(CCc2ccccn2)c1)c1ccc(Cl)s1` below 300 nM?
A) class 0

Q) Just wondering, is IC50 of `O=S(=O)(Cc1ccc(Cl)cc1)NCc1ccc(-c2ccc(Cl)cc2)s1` below 300 nM?
A) class 0

Q) Just wondering, is IC50 of `Cn1nc(-c2ccc(S(=O)(=O)Nc3cccc(CCc4ccccn4)c3)s2)cc1C(F)(F)F` below 300 nM?
A) class 1
